- target: CD28 (Homo sapiens, UniProt P10747)
- protocol: Jurkat/IL2 + CHO/OKT3 +/- PD-L1 reporter assay: PD-L1-dependent CD28 costimulation
- Format: cell-based
- Set-up: host or cells: Jurkat cells expressing an IL-2-luciferase reporter
- study-conditions: Table E12; Jurkat/IL2 + CHO/OKT3/PD-L1; 5.0 nM
Below, each entry is listed with its recorded Relative Luciferase Units (RLU), CD80 Cone 5.0 nM.
measured-attribute: Relative Luciferase Units (RLU), CD80 Cone 5.0 nM

molecule	data-value
E35D/D46E/L85M (protein) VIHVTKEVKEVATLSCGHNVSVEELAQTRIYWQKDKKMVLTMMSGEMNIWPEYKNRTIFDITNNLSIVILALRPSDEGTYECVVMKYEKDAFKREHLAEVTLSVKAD	1413 RLU
E35D/M43I/M47L/L85M (protein) VIHVTKEVKEVATLSCGHNVSVEELAQTRIYWQKDKKMVLTMISGDLNIWPEYKNRTIFDITNNLSIVILALRPSDEGTYECVVMKYEKDAFKREHLAEVTLSVKAD	1427 RLU
E35D/T41S/N48T (protein) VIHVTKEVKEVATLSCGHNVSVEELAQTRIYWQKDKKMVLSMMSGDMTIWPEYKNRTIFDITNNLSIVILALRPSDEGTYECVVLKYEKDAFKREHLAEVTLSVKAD	1136 RLU
E35D/M47L/A71G (protein) VIHVTKEVKEVATLSCGHNVSVEELAQTRIYWQKDKKMVLTMMSGDLNIWPEYKNRTIFDITNNLSIVILGLRPSDEGTYECVVLKYEKDAFKREHLAEVTLSVKAD	1954 RLU
